- Assay Remarks: Toxicity in human Caco2 cells assessed as cell viability incubated for 2 hrs by CellTiter-Glo assay
- Type: cell-based
- Condition Label: Caco-2 cells, read-out: Activity
*1 amine or outer side, *2 acyl side, *3 side chain or, on linkers, in order; H or OH if unused. Where a SMILES comes first, the peptide text is derived from it. [ ]: non-standard residue; d: D form. X1 = O=C(CCc1cccc2c1oc1c(CCN[*:1])cccc12)[*:2]
Kindly state viability at 2 h for each of the entries shown.

Request: What value of measured viability at 2 h is listed for CC[C@H](C)[C@@H]1NC(=O)[C@H](CC(=O)O)NC(=O)[C@H](CC(=O)O)NC(=O)[C@@H]2CCCN2C(=O)[C@H]2CCCN2C(=O)[C@H](CC(=O)O)NC(=O)[C@H](Cc2ccc(O)cc2)NC(=O)[C@H]([C@@H](C)CC)NC(=O)[C@H](CO)NC(=O)[C@H](CCCCN)NC1=O ?
Result: > 95%

Request: Param item = CC[C@H](C)[C@@H]1NC(=O)[C@H](Cc2ccc(O)cc2)NC(=O)[C@H](CC(=O)O)NC(=O)CCc2cccc3c2Oc2c(cccc2-3)CCNC(=O)[C@H](CC(=O)O)NC(=O)[C@H](CC(=O)O)NC(=O)[C@H](CCCCN)NC1=O (cyclo(DD[X1]DYIK)) ; retrieve measured viability at 2 h.
Result: > 95%
